Reported values of GI50 for individual entries
System: UO-31
assayNotes: NCI tumour cell line growth inhibition, 48 h
Active and inactive are the calls of the source. Rule as the data show it: active = GI50 up to about 1.1 µM and inactive = higher.
attributeMeasured: GI50

| molecule | experimentalValue |
| --- | --- |
| Cc1ccc(I)cc1N=C=S | 17.3 µM (inactive) |
| COC(=O)C(NC(=O)c1ccccc1)C(c1c(O)cc(O)cc1O)P(=O)(OC)OC (stereo unspecified) | > 100 µM (inactive) |
| CC(N)Cc1cccc(C(F)(F)F)c1 (stereo unspecified) | > 100 µM (inactive) |
| COC(=O)C(=O)c1c2ccccc2n2ccc3c4ccccc4[nH]c3c12 | > 10 µM (inactive) |
| Oc1ccc(Oc2cc3c(cc2Oc2ccc(O)cc2)-c2nc-3nc3[nH]c(nc4nc(nc5[nH]c(n2)c2cc(Oc6ccc(O)cc6)c(Oc6ccc(O)cc6)cc52)-c2cc(Oc5ccc(O)cc5)c(Oc5ccc(O)cc5)cc2-4)c2cc(Oc4ccc(O)cc4)c(Oc4ccc(O)cc4)cc32)cc1 | > 100 µM (inactive) |
| CCOC(=O)C(OCC1CC=CCC1)Sc1ccccc1 (stereo unspecified) | > 100 µM (inactive) |
| CCCCCCCCCCCCCCCCCC(CCCCCCCCCCCCCCCCC)OP(=O)(O)O | > 100 µM (inactive) |
| CCOC(=O)CCC(NC(=O)Cc1ccc(Oc2nc3ccccc3nc2-c2ccccc2)cc1)C(=O)OCC (stereo unspecified) | 52.5 µM (inactive) |
| CCSC1=N/C(=C\c2ccc(N(C)C)cc2)C(Cl)=N1 | > 100 µM (inactive) |
| CC(C)NC(C)C(C)c1ccccc1 (stereo unspecified) | > 100 µM (inactive) |
| CCOC(=O)C#Cc1cccc(C#CC(=O)OCC)c1 | 4.51 µM (inactive) |
| C/C(=N\NC(=S)N1CCCCC1)c1cccc(C)n1 | 0.0414 µM (active) |
| COc1cc(C(C)c2cc3c(cc2OCCN)OCO3)cc(OC)c1OC (stereo unspecified) | 50.8 µM (inactive) |
| O=C(O)[C@H]1[C@@H](C2CCCCC2)O[C@@H](C2CCCCC2)O[C@H]1C(F)(F)F | 26.2 µM (inactive) |
| O=C1C=C(N2CCN(CCOCCO)CC2)C(=O)c2c(O)ccc(O)c21 | 10.3 µM (inactive) |
| O=C1C=CC(=O)C(CNc2ccc(C(=O)OC34CC5CC(CC(C5)C3)C4)cc2)=C1Br | 6.75 µM (inactive) |
| N#CCCN(CCC#N)c1ccc(C(=N/c2ccc(Cl)cc2)/N=N/c2ccc(Cl)cc2)cc1 | 15.2 µM (inactive) |
| CCCCCCCCCCCC(=O)CC(=O)c1c(O)cccc1O | 14.5 µM (inactive) |
| NC(CCCCO)C(=O)O (stereo unspecified) | > 100 µM (inactive) |
| Cn1c2ccccc2c2cc(-c3ccccc3)c3c(c21)C(=O)C=CC3=O | 19.8 µM (inactive) |
| CSC1=C(C#N)C(=O)N(c2ccc(Cl)cc2)C(=O)C1C#N (stereo unspecified) | > 100 µM (inactive) |
